system: Streptococcus; test: Antimicrobial activity against viridans group Streptococcus by broth microdilution method; type: functional
observedProperty: MIC (µg/mL)

compoundsmiles=CC[C@H]1OC(=O)[C@H](C)[C@@H](O[C@H]2C[C@@](C)(OC)[C@@H](O)[C@H](C)O2)[C@H](C)[C@@H](O[C@@H]2O[C@H](C)C[C@H](N(C)C)[C@H]2O)[C@](C)(O)C[C@@H](C)C(=O)[C@H](C)[C@@H](O)[C@]1(C)O systemname=Streptococcus observedproperty=MIC quantitativeresult=0.25
compoundsmiles=CO/N=C(\C(=O)N[C@@H]1C(=O)N2C(C(=O)O)=C(CSc3nc(=O)c(O)nn3C)CS[C@H]12)c1csc(N)n1 systemname=Streptococcus observedproperty=MIC quantitativeresult=0.25
compoundsmiles=CN[C@H]1C(=O)N[C@@H]2Cc3ccc(cc3)Oc3cc4cc(c3O[C@@H]3O[C@H](C(=O)O)[C@@H](O)[C@H](O)[C@H]3NC(=O)CCCCCCCCC(C)C)Oc3ccc(cc3Cl)[C@@H](O)[C@@H]3NC(=O)[C@H](NC(=O)[C@@H]4NC(=O)[C@@H](NC2=O)c2cc(cc(O)c2Cl)Oc2cc1ccc2O)c1ccc(O)c(c1)-c1c(O[C@H]2O[C@H](CO)[C@@H](O)[C@H](O)[C@@H]2O)cc(O)cc1[C@@H](C(=O)NCCCN(C)C)NC3=O systemname=Streptococcus observedproperty=MIC quantitativeresult=0.03
compoundsmiles=CCC[C@@H]1C[C@@H](C(=O)N[C@@H]([C@H]2O[C@H](SC)[C@H](O)[C@@H](O)[C@H]2O)[C@H](C)Cl)N(C)C1 systemname=Streptococcus observedproperty=MIC quantitativeresult=0.25

Origin of the recorded values: ChEMBL document CHEMBL1629667
